- targetUnderTest: human FXIa (Homo sapiens, UniProt P03951)
- Sequence (P03951 388-625 limits assumed): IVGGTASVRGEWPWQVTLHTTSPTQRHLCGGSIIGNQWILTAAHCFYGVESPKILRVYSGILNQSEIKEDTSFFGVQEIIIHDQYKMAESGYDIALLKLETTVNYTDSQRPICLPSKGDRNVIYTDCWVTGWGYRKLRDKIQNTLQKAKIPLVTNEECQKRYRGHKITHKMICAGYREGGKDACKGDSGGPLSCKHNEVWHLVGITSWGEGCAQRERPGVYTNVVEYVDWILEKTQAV
- Sequence (P03951 19-387 partner limits assumed): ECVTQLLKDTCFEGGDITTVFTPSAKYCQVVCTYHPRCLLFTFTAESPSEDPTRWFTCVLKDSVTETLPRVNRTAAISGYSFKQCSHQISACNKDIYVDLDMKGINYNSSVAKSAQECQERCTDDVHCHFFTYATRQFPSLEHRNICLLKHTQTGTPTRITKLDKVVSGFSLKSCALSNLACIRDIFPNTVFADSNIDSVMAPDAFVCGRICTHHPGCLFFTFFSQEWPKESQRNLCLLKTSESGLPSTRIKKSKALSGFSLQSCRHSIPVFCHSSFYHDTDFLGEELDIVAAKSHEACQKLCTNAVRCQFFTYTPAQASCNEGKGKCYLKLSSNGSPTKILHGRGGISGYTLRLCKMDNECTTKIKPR
- assayComment: In vitro activated factor XI (FXIa) inhibition test
- Type: biochemical
pIC50: −log10 of the molar value.
measurementLabel: pIC50

COC1CCC([C@@H]2CCN(C(=O)[C@H]3CC[C@H]([C@H](N)CF)CC3)[C@@H]2C(=O)Nc2ccc3oc(C(=O)O)cc3c2)CC1 (stereo partly shown) : 7.03
N[C@H](CF)[C@H]1CC[C@H](C(=O)N2CCC(C3CCCCC3)[C@H]2C(=O)Nc2ccc3oc(C(=O)O)cc3c2)CC1 (single isomer, unassigned) : 7.47
N[C@H](CF)[C@H]1CC[C@H](C(=O)N2CC[C@@H](C3CCCCC3)[C@H]2C(=O)Nc2ccc3oc(C(=O)OCC4CCOCC4)cc3c2)CC1 : 5.46
N[C@H](CF)[C@H]1CC[C@H](C(=O)N2CC[C@@H](C3CCCCC3)[C@H]2C(=O)Nc2ccc(C(=O)NS(=O)(=O)c3ccccn3)cc2)CC1 : 7.27
N[C@H](CF)[C@H]1CC[C@H](C(=O)N2CC[C@@H](C3CCCCC3)[C@H]2C(=O)Nc2ccc3oc(C(=O)NS(=O)(=O)N4CCOCC4)cc3c2)CC1 : 8.10
N[C@H](CF)[C@H]1CC[C@H](C(=O)N2CC[C@@H](C3CCCCC3)[C@H]2C(=O)Nc2ccc3oc(C(=O)NS(=O)(=O)c4ccccc4)cc3c2)CC1 : 7.37
COC1CCC([C@H]2CCN(C(=O)[C@H]3CC[C@H]([C@H](N)CF)CC3)[C@H]2C(=O)Nc2ccc3oc(C(=O)O)cc3c2)CC1 (stereo partly shown) : 6.55
N[C@H](CF)[C@H]1CC[C@H](C(=O)N2CC[C@@H](C3CCCCC3)[C@H]2C(=O)Nc2ccc(C(=O)NS(=O)(=O)c3ccccc3)cc2)CC1 : 7.19
N[C@H](CF)[C@H]1CC[C@H](C(=O)N2CCC(C3CCCCC3)[C@H]2C(=O)Nc2ccc3sc(C(=O)O)cc3c2)CC1 (single isomer, unassigned) : 6.71
NC(CF)[C@H]1CC[C@H](C(=O)N2CC[C@@H](C3CCCCC3)[C@H]2C(=O)Nc2ccc3oc(C(=O)O)cc3c2)CC1 (stereo partly shown) : 7.08
N[C@H](CF)[C@H]1CC[C@H](C(=O)N2CC[C@@H](C3CCCCC3)[C@H]2C(=O)Nc2ccc(C(=O)NCc3ccccn3)cc2)CC1 : 6.42
N[C@H](CF)[C@H]1CC[C@H](C(=O)N2CC[C@H](c3ccccc3)[C@H]2C(=O)Nc2ccc3[nH]c(C(=O)NS(=O)(=O)N4CCOCC4)cc3c2)CC1 : 6.16
COCCOCCCOC(=O)c1cc2cc(NC(=O)[C@@H]3[C@H](C4CCC(OC)CC4)CCN3C(=O)[C@H]3CC[C@H]([C@H](N)CF)CC3)ccc2o1 (stereo partly shown) : 5.46

----------
- assayComment: Ester metabolism stabilization test: stabilization in human plasma test
- Format: in vitro ADME
- testParameters: 37°C, 30 minutes
measurementLabel: Residual percentage (%) Human plasma

CCC(=O)OC(OC(=O)c1cc2cc(NC(=O)[C@@H]3[C@@H](c4ccccc4)CCN3C(=O)[C@H]3CC[C@H]([C@H](N)CF)CC3)ccc2[nH]1)C(C)C (stereo partly shown) : 86
COC1CCC([C@@H]2CCN(C(=O)[C@H]3CC[C@H]([C@H](N)CF)CC3)[C@@H]2C(=O)Nc2ccc3oc(C(=O)OCC(C)C)cc3c2)CC1 (stereo partly shown) : 85
CC(OC(=O)OC1CCCCC1)OC(=O)c1cc2cc(NC(=O)[C@@H]3[C@@H](c4ccccc4)CCN3C(=O)[C@H]3CC[C@H]([C@H](N)CF)CC3)ccc2[nH]1 (stereo partly shown) : 65
N[C@H](CF)[C@H]1CC[C@H](C(=O)N2CC[C@@H](C3CCCCC3)[C@H]2C(=O)Nc2ccc3oc(C(=O)OCC4CCOCC4)cc3c2)CC1 : 94
COCCCOC(=O)c1cc2cc(NC(=O)[C@@H]3[C@H](C4CCCCC4)CCN3C(=O)[C@H]3CC[C@H]([C@H](N)CF)CC3)ccc2o1 : 92
CC(C)OC(=O)OC(C)OC(=O)c1cc2cc(NC(=O)[C@@H]3[C@H](C4CCCCC4)CCN3C(=O)[C@H]3CC[C@H]([C@H](N)CF)CC3)ccc2[nH]1 (stereo partly shown) : 82
